Below: compounds with IC50 recorded for Monoglyceride lipase (Mus musculus, UniProt O35678) in separate published works.

# Compound, IC50
records = [
    ("CC(=O)N(C)c1cnn(C(=O)N2CC3CN(Cc4ccc(-c5ccccc5)cc4C)CC3C2)c1 (stereo not drawn)", "≤ 100 nM"),
    ("Cc1ccc2nc(Cl)c(CN3CCCC34CCN(C(=O)OC(C(F)(F)F)C(F)(F)F)CC4)cc2c1", "< 100 nM"),
    ("CC(=O)N(C)c1cnn(C(=O)N2CC3CN(Cc4cccc(F)c4)CC3C2)c1 (stereo not drawn)", "100 to 1000 nM"),
    ("CC(=O)N(C)c1cnn(C(=O)N2CCN(Cc3ccc(-c4ccccc4)cc3C)CC2)c1", "≤ 100 nM"),
    ("CC(=O)N(C)c1cnn(C(=O)N2CC3CN(Cc4ccc(N5CCCC5)c(Cl)c4)CC3C2)c1 (stereo not drawn)", "≤ 100 nM"),
    ("O=C(OC(C(F)(F)F)C(F)(F)F)N1CC2(CCN(Cc3ccc(C(F)(F)F)cc3N3CCOCC3)CC2)C1", "< 100 nM"),
    ("O=C(OC(C(F)(F)F)C(F)(F)F)N1CCC2(CCCN2Cc2cc3cc(Cl)cc(Cl)c3[nH]2)CC1", "< 100 nM"),
    ("CS(=O)(=O)Nc1cnn(C(=O)N2CCC3(CC2)CN(Cc2cc(Cl)ccc2C(F)(F)F)C3)c1", "≤ 100 nM"),
    ("O=C(OC(C(F)(F)F)C(F)(F)F)N1CCC2(CCCN2C(=O)c2cc3ccccc3[nH]2)CC1", "< 100 nM"),
    ("CC(C)(C)c1cc(CN2CCC3(CCN(C(=O)OC(C(F)(F)F)C(F)(F)F)CC3)C2)n(-c2ccccc2Cl)n1", "< 100 nM"),
    ("CS(=O)(=O)N1CCC2(CCN(c3ccccc3CN3CCN(C(=O)OC(C(F)(F)F)C(F)(F)F)CC3)C2)C1 (stereo not drawn)", "< 100 nM"),
    ("CC(=O)N1CCCc2cccc(CN3CC4(CCN(C(=O)OC(C(F)(F)F)C(F)(F)F)CC4)C3)c21", "< 100 nM"),
    ("CS(=O)(=O)N1CCC2(CCN(c3cc(C(F)(F)F)ccc3CN3CCN(C(=O)OC(C(F)(F)F)C(F)(F)F)CC3)C2)CC1", "< 100 nM"),
    ("CC(C)n1cc(C(=O)N2CCCC23CCN(C(=O)OC(C(F)(F)F)C(F)(F)F)CC3)cn1", "< 100 nM"),
    ("O=C(OC(C(F)(F)F)C(F)(F)F)N1CCC2(CCCN2C(=O)c2cc3cc(Cl)cc(Cl)c3[nH]2)CC1", "< 100 nM"),
]
